assay: Single dose study: plasma pharmacokinetics of eplerenone, open lactone ring form, spironolactone; details: male, human, plasma, po, 300 mg
readout_type: concentration at 96 h (ng/mL)
Dear colleague, please return just the value in ng/mL, with no unit written.

Q) What concentration at 96 h value was documented for this compound, COC(=O)C1CC2=CC(=O)CCC2(C)C23OC2CC2(C)C(CC[C@@]24CCC(=O)O4)C13 (stereo partly shown) ?
A) 0

====

test: Single dose study: plasma pharmacokinetics of eplerenone, open lactone ring form, spironolactone; settings: male, human, plasma, po, 10 mg
readout_type: concentration at 4 h (ng/mL)
# value in ng/mL; strip the unit string

Q) Quick check: concentration at 4 h of COC(=O)C1CC2=CC(=O)CCC2(C)C23OC2CC2(C)C(CC[C@@]24CCC(=O)O4)C13 (stereo partly shown) ?
A) 106

Cited source for all entries: patent US6410054B1
